measurement-notes: Quantitative highthroughput screen to assess conditional lethalithy of NOMO1 cells grown in Human Plasma-Like Medium with dialyzed fetal bovine serum (HPLM+ds) (AID 1963878); further: nearly all actives have a fitted effect of over 35% in size;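 on viability: 100% = DMSO wells and 0% = empty wells on each plate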
experimental-context: NOMO1 AML cells in HPLM+ds, CellTiter-Glo viability, 48 h; series mostly up to 45.8 µM
Method: Assay Provider: Jason Cantor Ph.D. Department of Biochemistry University of Wisconsin-Madison, Madison, WI, USA Chemical screening studies have identified drug sensitivities across hundreds of cancer cell lines but most putative therapeutics fail to translate. […] Sets of conditional anticancer compounds spanned phases of clinical development and included non-oncology drugs were assessed. […] 6; Detection; Luminescence, Viewlux PerkinElmer. […]
Results filed as inconclusive are left out. Active and inactive are the calls of the source. The call rests on the fitted dose curve; in most records, active means well fitted cell-killing curve with a large enough effect; inconclusive means small, poorly fitted or top-dose-only effect, or effect the other way; inactive means no such curve, though single readings can be large or run the other way.
Choose one outcome from this list and give only that: 1.0 for active, 0.0 for inactive

N#Cc1c(C2CCNCC2)cc(-c2c(O)cccc2OCC2CC2)nc1N | 0.0
CNCCN(C)Cc1cn[nH]c1-c1ccc(OC2CC(OCCC3CCOCC3)C2)cc1 (centres undefined) | 0.0
Nc1ncnc2c1ncn2[C@@H]1O[C@H](CO)C[C@@H]1O | 0.0
NC(=O)c1ccc(-c2nc(-c3ccc4c(c3)OCCO4)c(-c3ccccn3)[nH]2)cc1 | 0.0

In: Test call for this compound, please: `CC(=O)O[C@]1(C(C)=O)CC[C@H]2[C@@H]3C=C(C)C4=CC(=O)CC[C@]4(C)[C@@H]3CC[C@@]21C`
Out: 0.0

In: Test call for this compound, please: `C[C@]12CC[C@@H]3c4ccc(O)cc4CC[C@H]3[C@H]1C[C@@H](O)[C@H]2O`
Out: 0.0

In: Test call for this compound, please: `CCc1cc(C(N)=S)ccn1`
Out: 0.0

In: Test call for this compound, please: `O=C1c2c(O)cccc2[C@@H]([C@@H]2O[C@H](CO)[C@@H](O)[C@H](O)[C@H]2O)c2cc(CO)cc(O)c21`
Out: 0.0

In: Test call for this compound, please: `COc1c(O)cc2c(c1O)[C@@H]1O[C@H](CO)[C@@H](O)[C@H](O)[C@H]1OC2=O`
Out: 1.0
